# assay-system: 5'-nucleotidase (Homo sapiens, UniProt P21589)
# Sequence (P21589 whole entry): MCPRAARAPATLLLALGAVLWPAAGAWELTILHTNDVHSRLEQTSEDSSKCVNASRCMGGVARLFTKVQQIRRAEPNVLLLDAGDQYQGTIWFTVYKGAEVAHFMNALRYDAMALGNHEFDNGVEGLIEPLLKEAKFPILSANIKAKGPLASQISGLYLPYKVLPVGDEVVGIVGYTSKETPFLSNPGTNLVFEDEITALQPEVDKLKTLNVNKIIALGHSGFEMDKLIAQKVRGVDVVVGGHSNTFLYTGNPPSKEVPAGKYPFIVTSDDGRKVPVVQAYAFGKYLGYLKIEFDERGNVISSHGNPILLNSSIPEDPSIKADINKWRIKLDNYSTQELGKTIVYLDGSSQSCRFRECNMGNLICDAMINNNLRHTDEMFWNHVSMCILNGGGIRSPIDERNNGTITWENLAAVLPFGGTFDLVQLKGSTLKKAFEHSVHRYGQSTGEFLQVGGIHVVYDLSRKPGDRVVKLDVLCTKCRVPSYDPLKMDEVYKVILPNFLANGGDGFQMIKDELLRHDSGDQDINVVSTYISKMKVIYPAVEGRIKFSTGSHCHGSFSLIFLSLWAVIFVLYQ
Some compounds, each annotated with its measured IC50.
Hi! Could you send only the number? It should be in nM, unit omitted.

Guide cases for IC50, answers given:
O=C(N/N=C/c1ccc(F)cc1)c1ccncc1 :: 6760
COc1ccc(/C=N/NC(=O)c2ccncc2)cc1 :: 13800
O=C(N/N=C/c1cccnc1)c1ccncc1 :: 210
C/C(=N\NC(=O)c1ccncc1)N1N=C(c2ccc(F)cc2)CC1c1ccccc1 (centres undefined) :: 190
O=C(N/N=C/c1ccncc1)c1ccncc1 :: 2120
O=C(N/N=C/c1ccc(Cl)cc1)c1ccncc1 :: 1670

Exercise: What does the record list as IC50 for O=C(N/N=C/c1ccc(Br)cc1)c1ccncc1 ?
Key: 230

Exercise: What does the record list as IC50 for O=C(N/N=C/c1ccccc1O)c1ccncc1 ?
Key: 1340

Exercise: What does the record list as IC50 for O=C(N/N=C/c1cccc([N+](=O)[O-])c1)c1ccncc1 ?
Key: 1900

* * *

Target protein (sequence): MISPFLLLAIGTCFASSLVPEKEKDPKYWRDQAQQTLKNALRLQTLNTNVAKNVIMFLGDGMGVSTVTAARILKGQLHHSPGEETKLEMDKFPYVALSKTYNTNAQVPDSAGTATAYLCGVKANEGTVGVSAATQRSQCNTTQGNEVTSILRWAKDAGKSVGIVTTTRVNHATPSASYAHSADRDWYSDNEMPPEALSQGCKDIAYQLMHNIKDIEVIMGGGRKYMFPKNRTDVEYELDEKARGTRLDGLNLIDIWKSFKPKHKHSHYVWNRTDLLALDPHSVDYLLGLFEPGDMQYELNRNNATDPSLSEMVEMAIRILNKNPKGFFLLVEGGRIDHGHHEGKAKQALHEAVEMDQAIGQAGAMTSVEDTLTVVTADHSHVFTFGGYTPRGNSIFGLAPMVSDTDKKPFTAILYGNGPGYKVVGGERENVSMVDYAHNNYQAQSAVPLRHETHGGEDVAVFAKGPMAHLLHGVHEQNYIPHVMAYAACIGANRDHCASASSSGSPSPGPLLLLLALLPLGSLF
pIC50: −log10 of the molar value.
Class met: pIC50 at least 6. Class not met: pIC50 below 6.

O=C(N/N=C/c1ccc(F)cc1)c1ccncc1 :: not met
COc1cc(/C=N/NC(=O)c2ccncc2)ccc1O :: met
O=C(N/N=C/c1cccc([N+](=O)[O-])c1)c1ccncc1 :: not met
O=C(N/N=C/c1ccc(Br)cc1)c1ccncc1 :: not met
COc1ccc(/C=N/NC(=O)c2ccncc2)cc1 :: met

Continue with the compound presented below.
Exercise: Dear colleague, could you confirm whether O=C(N/N=C/c1cccnc1)c1ccncc1 has pIC50 at or above 6?
Key: not met

* * *

Each entry below carries its measured pIC50, system: Intestinal-type alkaline phosphatase (Bos taurus, UniProt P19111).
Sequence (P19111 whole entry): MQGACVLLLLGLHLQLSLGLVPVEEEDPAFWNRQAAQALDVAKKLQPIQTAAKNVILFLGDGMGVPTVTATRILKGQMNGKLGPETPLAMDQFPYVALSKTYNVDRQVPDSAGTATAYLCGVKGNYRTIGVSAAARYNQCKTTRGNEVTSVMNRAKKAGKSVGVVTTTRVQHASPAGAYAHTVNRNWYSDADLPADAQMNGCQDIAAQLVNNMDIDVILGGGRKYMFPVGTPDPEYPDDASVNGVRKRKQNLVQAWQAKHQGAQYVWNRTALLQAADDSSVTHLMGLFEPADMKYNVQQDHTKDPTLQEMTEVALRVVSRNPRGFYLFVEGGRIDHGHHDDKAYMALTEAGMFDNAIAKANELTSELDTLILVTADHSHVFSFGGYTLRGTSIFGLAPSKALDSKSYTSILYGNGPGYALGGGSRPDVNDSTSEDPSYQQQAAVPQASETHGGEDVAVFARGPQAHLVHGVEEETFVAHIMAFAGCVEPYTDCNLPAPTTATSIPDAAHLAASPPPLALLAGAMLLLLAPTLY
In simple prose, pIC50 is minus the logarithm base ten of a concentration in moles per litre.

Guide cases for pIC50, answers given:
COc1ccc(/C=N/NC(=O)c2ccncc2)cc1 :: 5.76
O=C(N/N=C/c1ccc(F)cc1)c1ccncc1 :: 4.76
C/C(=N\NC(=O)c1ccncc1)N1N=C(c2ccc(F)cc2)CC1c1ccccc1 (centres undefined) :: 5.40
O=C(N/N=C/c1ccc(Br)cc1)c1ccncc1 :: 5.01
O=C(N/N=C/c1ccncc1)c1ccncc1 :: 5.61

Exercise: What does the record list as pIC50 for O=C(N/N=C/c1cccc([N+](=O)[O-])c1)c1ccncc1 ?
Key: 5.13

Exercise: What does the record list as pIC50 for O=C(N/N=C/c1cccnc1)c1ccncc1 ?
Key: 5.84

Exercise: What does the record list as pIC50 for O=C(N/N=C/c1ccccc1O)c1ccncc1 ?
Key: 5.84

Exercise: What does the record list as pIC50 for O=C(N/N=C/c1ccc(Cl)cc1)c1ccncc1 ?
Key: 6.17

* * *

# assay-system: 5'-nucleotidase (Rattus norvegicus, UniProt P21588)
# Sequence (P21588 whole entry): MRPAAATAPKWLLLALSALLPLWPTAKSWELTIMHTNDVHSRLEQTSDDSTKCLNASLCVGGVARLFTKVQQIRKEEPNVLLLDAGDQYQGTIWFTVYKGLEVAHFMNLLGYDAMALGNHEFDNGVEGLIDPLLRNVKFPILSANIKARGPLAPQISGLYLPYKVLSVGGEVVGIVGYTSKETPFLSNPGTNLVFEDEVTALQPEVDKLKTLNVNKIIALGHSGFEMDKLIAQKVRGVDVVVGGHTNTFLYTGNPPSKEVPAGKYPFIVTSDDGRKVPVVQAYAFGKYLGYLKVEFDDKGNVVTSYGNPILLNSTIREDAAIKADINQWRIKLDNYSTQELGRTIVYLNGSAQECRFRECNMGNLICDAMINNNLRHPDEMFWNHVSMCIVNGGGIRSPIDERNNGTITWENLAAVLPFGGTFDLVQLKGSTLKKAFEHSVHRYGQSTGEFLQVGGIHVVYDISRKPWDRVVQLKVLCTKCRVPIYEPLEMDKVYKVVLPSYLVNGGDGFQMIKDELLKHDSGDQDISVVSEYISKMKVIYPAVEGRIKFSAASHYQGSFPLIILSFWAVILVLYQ
pIC50: −log10 of the molar value.
Class Satisfied: pIC50 at least 6. Class Not satisfied: pIC50 below 6.

Solved cases below.
O=C(N/N=C/c1cccc([N+](=O)[O-])c1)c1ccncc1 :: Satisfied
COc1ccc(/C=N/NC(=O)c2ccncc2)cc1 :: Satisfied
O=C(N/N=C/c1ccc(F)cc1)c1ccncc1 :: Satisfied

Exercise: Dear colleague, could you confirm whether O=C(N/N=C/c1cccnc1)c1ccncc1 has pIC50 at or above 6?
Key: Not satisfied

Exercise: Dear colleague, could you confirm whether O=C(N/N=C/c1ccncc1)c1ccncc1 has pIC50 at or above 6?
Key: Not satisfied

* * *

# assay-system: 5'-nucleotidase (Rattus norvegicus, UniProt P21588)
# procedure-summary: Ecto-5'-Nucleotidase Inhibition Assay
# recorded-conditions: pH 7.4; 37 °C
# Procedure: The enzymatic assay of both human and rat ecto-5'-nucleotidase were performed with slight modifications in the previously described method. […] Aliquots of 50 μL of each reaction mixture was transferred into CE mini vial and hydrodynamically injected into the capillary by using pressure of 0.5 psi for 5s. […] The concentration of product i.e. adenosine was estimated by calculating the area under its absorbance peak at 260 nm.
Some compounds, each annotated with its measured pIC50.
In simple prose, pIC50 is minus the logarithm base ten of a concentration in moles per litre.

O=C(N/N=C/c1ccc(Cl)cc1)c1ccncc1 :: 5.97
C/C(=N\NC(=O)c1ccncc1)N1N=C(c2ccc(F)cc2)CC1c1ccccc1 (centres undefined) :: 6.44
O=C(N/N=C/c1ccc(Br)cc1)c1ccncc1 :: 5.15

Attention now shifts to the item below.
Exercise: What does the record list as pIC50 for O=C(N/N=C/c1ccccc1O)c1ccncc1 ?
Key: 6.35

These measurements were taken from BindingDB's records for doi:10.1111/cbdd.12861.
